Provide the recorded IC50 for the entries that follow.
- Tested on: PC3 cells
- Format: cell-based, human
- Protocol: HeLa, PC3, MCF7 and MDA231 cell lines were used to determine IC50 of each stapled peptide. All cells were cultured at 37° C. supplemented with 5% CO2. HeLa cells and PC3 cells were maintained in DMEM and RPMI 1640 media, respectively, supplemented with 10% FBS, 50 units/mL penicillin, and 50 μg/mL streptomycin. […] The absorbance was measured at 570 nm with 690 nm as an internal reference using a GloMax-Multi Detection System (Promega). […]
# output: bare number, implied unit µM

Bench note: what IC50 did "CC[C@H](C)[C@@H]1NC(=O)[C@@](C)(NC(=O)[C@H](CCCNC(=N)N)NC(=O)[C@H](CC(C)C)NC(=O)[C@H](CC(C)C)NC(=O)[C@H](CCC(N)=O)NC(=O)[C@H](C)NC(=O)[C@@H](NC(=O)[C@@H](N)Cc2c[nH]c3ccccc23)C(C)C)CCCC=CCCC[C@@](C)(C(=O)N[C@H](C(=O)N[C@@H](CC(N)=O)C(N)=O)C(C)C)NC(=O)[C@H](CC(=O)O)NC(=O)CNC1=O" show?
4.7

Bench note: what IC50 did "CC(C)C[C@H](NC(=O)[C@H](Cc1c[nH]c2ccccc12)NC(=O)[C@H](CCC(N)=O)NC(=O)[C@H](C)NC(=O)[C@@H](NC(=O)[C@@H](N)Cc1c[nH]c2ccccc12)C(C)C)C(=O)N[C@@H](CCCNC(=N)N)C(=O)N[C@@]1(C)CCCC=CCCC[C@@](C)(C(=O)N[C@@H](Cc2ccccc2)C(=O)N[C@@H](CC(N)=O)C(N)=O)NC(=O)[C@H](CC(=O)O)NC(=O)CNC(=O)[C@H](Cc2c[nH]c3ccccc23)NC1=O" show?
17.9

Bench note: what IC50 did "CC(C)C[C@H](NC(=O)[C@H](CCC(N)=O)NC(=O)[C@H](C)NC(=O)[C@H](CC(C)C)NC(=O)[C@@H](N)Cc1c[nH]c2ccccc12)C(=O)N[C@@H](CC(C)C)C(=O)N[C@@H](CCCNC(=N)N)C(=O)N[C@@]1(C)CCCC=CCCC[C@@](C)(C(=O)N[C@@H](Cc2ccccc2)C(=O)N[C@@H](CC(N)=O)C(N)=O)NC(=O)[C@H](CC(=O)O)NC(=O)CNC(=O)[C@H](Cc2ccc(O)cc2)NC1=O" show?
14.9
